- Measurement Protocol: Quantum yield of selected dyes (Table 3)
- Assay type: physicochemical
Measured Quantity: Quantum Yield (pH 9)

# Compound, Quantum Yield (pH 9)
records = [
    ("Cc1cc(=O)oc2cc(O)ccc12 [7-hydroxy-4-methylcoumarin]", 0.63),
]

Lab note: next compound to report on.
Q: Param item = Cc1cc(=O)oc2cc(O)c(F)cc12 ; retrieve measured Quantum Yield (pH 9).
Result: 0.64

====

# reported Photobleaching: percent decrease in fluorescence intensity; entries follow
- Measurement Protocol: Photobleaching during illumination in a fluorometer
- Assay type: physicochemical
- Experimental Context: after 33 minutes of illumination in a fluorometer at the wavelength of maximum excitation
Use % as the unit, but write only the number.

Guide cases for Photobleaching: percent decrease in fluorescence intensity, answers given:
# Molecule, Measurement Unit, Data Value
records = [
    ("Cc1cc(=O)oc2cc(O)c(F)cc12", "%", 20),
    ("Cc1cc(=O)oc2cc(O)ccc12 [7-hydroxy-4-methylcoumarin]", "%", 22),
    ("Cc1cc(=O)oc2c(F)c(O)c(F)cc12 [Compound 4, 6,8-difluoro-7-hydroxy-4-methylcoumarin]", "%", 5),
    ("Cc1cc(=O)oc2cc(O)cc(F)c12", "%", 12),
    ("O=c1cc(C(F)(F)F)c2ccc(O)cc2o1", "%", 31),
    ("O=c1cc(C(F)(F)F)c2cc(F)c(O)cc2o1", "%", 18),
]

Lab note: next molecule to report on.
Q: Param item = O=c1cc(C(F)(F)F)c2cc(F)c(O)c(F)c2o1 ; retrieve measured Photobleaching: percent decrease in fluorescence intensity.
Result: 7
